System: NL43 wild type virus
Type: cell-based, HIV
test_conditions: read-out: EC50 (P4) (WT)
pEC50 reference
Units for pEC50: none; it is -log10 of a concentration expressed in mol/L.

The following molecules have reported results that may help.
Cc1cn(C2COC(COP(=O)(NC(C)C(=O)OC3CCCCC3)Oc3ccccc3)O2)c(=O)[nH]c1=O (mixture of isomers) [Example 72]
5.67
Cc1cn(C2COC(COP(=O)(NC(C)C(=O)OC3CCCC3)Oc3ccccc3)O2)c(=O)[nH]c1=O (mixture of isomers) [Example 73]
5.99
CCOC(=O)C(C)NP(=O)(OCC1OCC(n2cc(C)c(=O)[nH]c2=O)O1)Oc1ccc(Cl)cc1 (mixture of isomers) [Example 20]
6.57
Cc1cn(C2COC(COP(=O)(NC(C)C(=O)OCc3ccccc3)Oc3ccc(F)cc3)O2)c(=O)[nH]c1=O (mixture of isomers) [Example 67]
5.95
Cc1cn(C2COC(COP(=O)(NC(C)C(=O)OCc3ccccc3)Oc3ccccc3Cl)O2)c(=O)[nH]c1=O (mixture of isomers) [Example 25]
6.59

From here, focus on the item given below.
Asked: Item Cc1cn(C2COC(COP(=O)(NC(C)C(=O)OC3CCC3)Oc3ccccc3)O2)c(=O)[nH]c1=O (mixture of isomers) [Example 95] with NL43 wild type virus - pEC50?
Given back: 6.35

###

Test system: NL43 wild type virus
Format: cell-based, HIV
test_conditions: read-out: EC50 (P4) (WT)
reported_property: pEC50
Units for pEC50: none; it is -log10 of a concentration expressed in mol/L.

The following compounds have reported results that may help.
CCCCCOC(=O)C(C)NP(=O)(OCC1OCC(n2cc(C)c(=O)[nH]c2=O)O1)Oc1ccccc1 (mixture of isomers)
6.44
Cc1cn(C2COC(COP(=O)(NC(CC(C)C)C(=O)OCC3CC3)Oc3ccccc3)O2)c(=O)[nH]c1=O (mixture of isomers)
6.24

Asked: Item COC(=O)C(CC(C)C)NP(=O)(OCC1OCC(n2cc(C)c(=O)[nH]c2=O)O1)Oc1ccccc1 (mixture of isomers) with NL43 wild type virus - pEC50?
Given back: 6.02

Asked: Item Cc1cn(C2COC(COP(=O)(NC(C)C(=O)OCc3ccccc3)Oc3ccccc3)O2)c(=O)[nH]c1=O (mixture of isomers) with NL43 wild type virus - pEC50?
Given back: 5.77

Asked: Item Cc1cn(C2COC(COP(=O)(NC(C)C(=O)OC3CCC3)Oc3ccc(F)cc3)O2)c(=O)[nH]c1=O (mixture of isomers) with NL43 wild type virus - pEC50?
Given back: 6.30

Asked: Item Cc1cn(C2COC(COP(=O)(NC(C)C(=O)OCC3CC3)Oc3ccccc3)O2)c(=O)[nH]c1=O (mixture of isomers) with NL43 wild type virus - pEC50?
Given back: 6.48

Asked: Item CCCCOC(=O)C(C)NP(=O)(OCC1OCC(n2cc(C)c(=O)[nH]c2=O)O1)Oc1ccc(Br)cc1 (mixture of isomers) with NL43 wild type virus - pEC50?
Given back: 5.87

Asked: Item Cc1cn(C2COC(COP(=O)(NC(C)C(=O)OCC3CCC3)Oc3ccccc3)O2)c(=O)[nH]c1=O (mixture of isomers) with NL43 wild type virus - pEC50?
Given back: 6.15
